Provide the recorded Classification for the entries that follow.
target: GST-BAI-1 Associated Protein PDZ domain 6 (Homo sapiens (Human)), Q96QZ7; experiment: G' assay; also: key of the grades not given here
Sequence (Q96QZ7 1143-1233): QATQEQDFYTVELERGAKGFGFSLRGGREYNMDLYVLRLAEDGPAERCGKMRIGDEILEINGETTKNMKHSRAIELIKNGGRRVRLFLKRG

// query Classification value for entry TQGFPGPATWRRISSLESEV (modifications not checked) [NMDA Glutamate Receptor 2C (cysteine-free)]
2 A450 class

// query Classification value for entry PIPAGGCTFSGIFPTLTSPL (modifications not checked) [KIA 1481]
2 A450 class

// query Classification value for entry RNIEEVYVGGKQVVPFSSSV (modifications not checked) [Nedasin (s-form)]
1 A450 class

// query Classification value for entry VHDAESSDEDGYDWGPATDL (modifications not checked) [zona occludens 3 (ZO-3) PL peptide]
2 A450 class

// query Classification value for entry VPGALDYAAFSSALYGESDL (modifications not checked) [a-actinin 2]
5 A450 class

// query Classification value for entry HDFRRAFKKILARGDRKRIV (modifications not checked) [alpha-2A Adrenergic receptor]
3 A450 class

// query Classification value for entry ARHRVTSYTSSSVNVSSNL (modifications not checked) [IL-8RA]
1 A450 class

Attribution: patent US20050282743A1
